assay.procedure: NFAT Signaling Pathway (AID 444);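 note: carbachol stimulus at about its EC50 of 1 µM final; % is set by controls: 0 for no effect and ±100 for the full control effect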
measurement.conditions: Jurkat NFAT-bla M1, carbachol, beta-lactamase ratio, 5 h; at 17.2 µM (top of the series) unless noted
Records with an inconclusive call do not appear.
measurement.kind: activity change, negative = inhibition (%)
Give the quantity in %, number only.

Q: Return value of activity change, negative = inhibition for input COc1cc(S(C)=O)ccc1-c1nc2ncccc2[nH]1 (stereo unspecified) , no commentary.
Result: 21.1

Q: Return value of activity change, negative = inhibition for input O=C(O)CCC(=O)c1ccc(-c2ccccc2)cc1 , no commentary.
Result: -7.68

Q: Return value of activity change, negative = inhibition for input Nc1ccc(N=Nc2ccccc2)c(N)n1 , no commentary.
Result: -10

Q: Return value of activity change, negative = inhibition for input O=C(O)Cc1cc(I)c(Oc2ccc(O)c(I)c2)c(I)c1 , no commentary.
Result: -22.7

Q: Return value of activity change, negative = inhibition for input O=C(O)c1ccc(OCCn2ccnc2)cc1 , no commentary.
Result: -10.7

Q: Return value of activity change, negative = inhibition for input Cn1nnnc1SCC1=C(C(=O)O)N2C(=O)[C@@H](NC(=O)[C@H](O)c3ccccc3)[C@H]2SC1 , no commentary.
Result: 5.92

###

Tested on: DIV14
assay.procedure: qHTS profiling for inhibitors of Plasmodium falciparum proliferation (AID 504749);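 note: 0% = DMSO vehicle and full inhibition = artemisinin control; nearly all actives have a fitted effect of over 60% in size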
measurement.conditions: P. falciparum in erythrocytes, SYBR Green DNA, 72 h; series mostly up to 28.7 µM
Records with an inconclusive call do not appear. Active and inactive are the calls of the source. Calls come from the whole dose curve; as a rule, active = well fitted inhibition curve with a large enough effect; inconclusive = small, poorly fitted or top-dose-only effect; inactive = flat fitted curve, though single readings scatter.
Respond using exactly one of the listed classes: Y = active, N = inactive

Solved entries (count: 4):
CN1C(C(=O)Nc2ccccn2)C(=O)c2sc(Cl)cc2S1(=O)=O (configuration not stated)	N
CC(=O)N[C@@H]1C(O[C@H]2O[C@H](C(=O)O)C(O)[C@H](O)[C@H]2O)[C@H](O)[C@@H](CO)O[C@H]1O[C@@H]1C(C(=O)O)O[C@@H](O[C@H]2[C@H](O)[C@@H](CO)OC(O)[C@@H]2NC(C)=O)[C@H](O)[C@H]1O (some centres not stated)	N
CCCCCCOC(=O)c1cccnc1	N
C=CCOc1ccc(CC(=O)O)cc1Cl	N

Q: Hey, what did the test say about NCC[C@H](O)C(=O)N[C@@H]1C[C@H](N)[C@@H](O[C@H]2O[C@H](CN)CC[C@H]2N)[C@H](O)[C@H]1O[C@H]1O[C@H](CO)[C@@H](O)[C@H](N)[C@H]1O ?
Result: N

###

assay.procedure: qHTS drug screen for cell cycle checkpoint inhibitors in PARPi-resistant BRCA-mutant ovarian cancer cell lines. (AID 1963452)
measurement.conditions: PEO1/OlaR viability, CellTiter-Glo luminescence, 96 h; measured here: PEO4 Z-AUC; stronger effect = lower value
Text: Women's Malignancies Branch, Center for Cancer Research (CCR), National Cancer Institute (NCI), National Institutes of Health (NIH), Bethesda, MD Poly (ADP-ribose) polymerase inhibitors (PARPis) have changed the treatment paradigm in breast cancer gene (BRCA) - mutant high-grade serous ovarian carcinoma (HGSC). […] 6; Detection; Luminescence, PHERAstar (BMG Labtech) plate reader. […] 6. Luminescence readings were taken using PHERAstar (BMG Labtech). […]
Each record is given Condition met if its reported Z-AUC is strictly below 0.8. Records at or above 0.8 are given Condition not met.

Solved entries (count: 5):
C[C@H]1O[C@@H](O[C@H]2[C@@H](O)C[C@H](O[C@H]3[C@@H](O)C[C@H](O[C@H]4CC[C@@]5(C)[C@H](CC[C@@H]6[C@@H]5C[C@@H](O)[C@]5(C)[C@@H](C7=CC(=O)OC7)CC[C@]65O)C4)O[C@@H]3C)O[C@@H]2C)C[C@H](O)[C@@H]1O	Condition met
CC[C@H]1OC(=O)[C@H](C)[C@@H](O[C@H]2C[C@@](C)(OC)[C@@H](O)[C@H](C)O2)[C@H](C)[C@@H](O[C@@H]2O[C@H](C)C[C@H](N(C)C)[C@H]2O)[C@](C)(O)C[C@@H](C)CN(C)[C@H](C)[C@@H](O)[C@]1(C)O	Condition not met
CN[C@@H]1[C@@H](O)[C@@H](O[C@@H]2[C@@H](O)[C@H](O[C@H]3O[C@H](CN)[C@@H](O)[C@H](O)[C@H]3O)[C@@H](N)C[C@H]2NC(=O)C(O)CN)OC[C@]1(C)O (stereo partly specified)	Condition met
Oc1ccc(/C=C/c2cc(O)cc(O)c2)cc1	Condition met
CC[C@H](CC[C@@H](C)[C@H]1CC[C@H]2[C@@H]3CC=C4C[C@@H](O)CC[C@]4(C)[C@H]3CC[C@]12C)C(C)C	Condition met

Consider now this further compound.
Q: Take the compound C=C1[C@H](CO)[C@@H](O)C[C@@H]1n1cnc2c(=O)[nH]c(N)nc21 and say whether its Z-AUC is less than 0.8.
Result: Condition not met

###

assay.procedure: Drug repurposing screens with cells derived from glioblastoma tumor samples (AID 1345199); note: % is set by controls: 0 for no effect and ±100 for the full control effect; nearly all actives have a fitted effect of over 40% in size
measurement.conditions: GBM patient neurospheres viability, ATP luminescence, 48 h; at 46 µM (top of the series); tumour line A
Results filed as inconclusive are left out. *1 amine or outer side, *2 acyl side, *3 side chain or, on linkers, in order; H or OH if unused. Where a SMILES comes first, the peptide text is derived from it. Bridges are numbered along the chain shown (N, C = ends). [ ]: non-standard residue; d: D form. The star is where a group is joined. X5 = NC1=N[C@@H]([C@H](N[*:1])C(=O)[*:2])C[C@H](O)N1; ΔAla(Z-3-ureido) = NC(=O)N/C=C(\N)C(=O)O; β3hOrn = NCCC[C@H](N)CC(=O)*; Dap = NC[C@H](N)C(=O)O
Each record is given 1 (yes) if its reported activity, negative = cell killing is strictly below -10%. Records at or above -10% are given 0 (no).

Solved entries (count: 6):
O=P(O)(O)O	0 (no)
COC1=C(OC)C(=O)C(C/C=C(\C)CC/C=C(\C)CC/C=C(\C)CC/C=C(\C)CC/C=C(\C)CC/C=C(\C)CC/C=C(\C)CC/C=C(\C)CC/C=C(\C)CCC=C(C)C)=C(C)C1=O	0 (no)
C[C@@H]1C[C@H]2[C@@H]3CCC4=CC(=O)C=C[C@]4(C)[C@@]3(F)[C@@H](O)C[C@]2(C)[C@@]1(O)C(=O)COC(=O)c1cccc(S(=O)(=O)O)c1	0 (no)
C[C@@H]1O[C@@H](OC[C@H]2O[C@@H](Oc3c(-c4ccc(OCCO)c(OCCO)c4)oc4cc(OCCO)cc(O)c4c3=O)[C@H](O)[C@@H](O)[C@@H]2O)[C@H](O)[C@H](O)[C@H]1O	1 (yes)
CCC(C(=O)NC(N)=O)c1ccccc1 (configuration not stated)	0 (no)
NCCC[C@H](N)CC(=O)N[C@H]1CNC(=O)[C@H]([C@H]2C[C@H](O)NC(N)=N2)NC(=O)/C(=C/NC(N)=O)NC(=O)[C@H](CO)NC(=O)[C@H](CO)NC1=O (β3hOrn-[Dap]SS[ΔAla(Z-3-ureido)][X5]; lactam 1-C)	1 (yes)

Consider now this further compound.
Q: Take the compound CCN(CC)C(=S)S and say whether its activity, negative = cell killing is less than -10%.
Result: 1 (yes)

###

Tested on: CP215
assay.procedure: qHTS profiling for inhibitors of Plasmodium falciparum proliferation (AID 504749);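 note: 0% = DMSO vehicle and full inhibition = artemisinin control; nearly all actives have a fitted effect of over 60% in size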
measurement.conditions: P. falciparum in erythrocytes, SYBR Green DNA, 72 h; series mostly up to 28.7 µM
Records with an inconclusive call do not appear. Active and inactive are the calls of the source. Calls come from the whole dose curve; as a rule, active = well fitted inhibition curve with a large enough effect; inconclusive = small, poorly fitted or top-dose-only effect; inactive = flat fitted curve, though single readings scatter.
Respond using exactly one of the listed classes: 1 for active, -1 for inactive

O=C(NCCNCC(O)COc1ccc(O)cc1)N1CCOCC1 (centres undefined)	-1
O=C(NNCS(=O)(=O)O)c1ccncc1	-1
NCC(O)CC(=O)O (centres undefined)	-1

Consider now this further compound.
Q: Hey, what did the test say about O=C(O)COc1ccccc1/C=N/NC(=O)c1ccncc1 ?
Result: -1

###

measured.target: Retinoic acid receptor RXR-alpha (Homo sapiens)
assay.procedure: qHTS assay for small molecule antagonists of retinoid X receptor alpha signaling (AID 588546);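 note: cells stimulated with 9-cis-retinoic acid as agonist; % is set by controls: 0 for no effect and ±100 for the full control effect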
measurement.conditions: HEK293T RXRa-UAS-bla, beta-lactamase ratio, antagonist mode
Inconclusive results are not listed.
measurement.kind: max response (%)
Give the quantity in %, number only.

# annotated cases, reported max response shown
NCCO/C=C/[C@H](N)C(=O)O	-9.4
Nc1ncnc2c1ncn2[C@H]1CC[C@@H](CO)O1	-6.41
OCc1ccccc1	-2.03
OC[C@H]1O[C@@](CO)(O[C@H]2O[C@H](CO)[C@@H](O)[C@H](O)[C@H]2O)[C@@H](O)[C@@H]1O	4.65

Q: Return value of max response for input CO[C@@H]1[C@H](OC(=O)/C=C/C=C/C=C/C=C/C(=O)O)CC[C@]2(CO2)[C@H]1[C@@]1(C)O[C@@H]1CC=C(C)C , no commentary.
Result: 18.1

Q: Return value of max response for input CC/C=C\C/C=C\C/C=C\CCCCCCCC(=O)O , no commentary.
Result: -8.86

Q: Return value of max response for input Nc1nccs1 , no commentary.
Result: 4.13

Q: Return value of max response for input Oc1ccc(/C=C/c2cc(O)cc(O)c2)cc1 , no commentary.
Result: -15.1

Q: Return value of max response for input Oc1cccc(O)c1O , no commentary.
Result: -0.897

Q: Return value of max response for input C/C=C/C=C/C(=O)O , no commentary.
Result: 25.3

Q: Return value of max response for input NC(N)=O , no commentary.
Result: -5.2

Q: Return value of max response for input O=P(O)(O)O , no commentary.
Result: 2.87

Q: Return value of max response for input CO/N=C(/C(=O)N[C@@H]1C(=O)N2C(C(=O)O)=C(COC(N)=O)CS[C@H]12)c1ccco1 , no commentary.
Result: -5.55

Q: Return value of max response for input O=c1n(CC2CO2)c(=O)n(CC2CO2)c(=O)n1CC1CO1 (stereo not given) , no commentary.
Result: -59.1

Q: Return value of max response for input C[Si](C)(C)O[Si](C)(C)C , no commentary.
Result: -23.1
